Experiment: Caco-2 permeability assay (CacoReady kit)
Format: in vitro ADME
Conditions: human
Procedure: Permeability coefficients (Papp values) were obtained from Caco-2 barrier studies predicting oral/intestinal bioavailability of the tested compounds. The assays were performed by using CacoReady™ ready-to-use kits from ReadyCell according to the manufacturers protocol.
Each entry below lists one item and its recorded Papp value.
observation-type: Papp

[[record]]
molecule = "COC(=O)/C=C/CC[C@H](NC(=O)c1cnnn1C)C(=O)Nc1cccn(CC(=O)N[C@@H]2C[C@@H]3CC[C@H]2C3)c1=O"
observation_type = "Papp"
value = "< 1 ×10⁻⁶ cm/s"

[[record]]
molecule = "COC(=O)/C=C/CC[C@H](NC(=O)c1nc(C2(C)CC2)no1)C(=O)Nc1cccn(CC(=O)NC2C3CC4CC2CC(C(N)=O)(C4)C3)c1=O (stereo partly shown)"
observation_type = "Papp"
value = "< 1 ×10⁻⁶ cm/s"

[[record]]
molecule = "COC(=O)/C=C/CC[C@H](NC(=O)c1oc2ccccc2c1C)C(=O)Nc1cccn(CC(=O)N[C@@H]2C[C@H]3CC[C@@H]2C3)c1=O"
observation_type = "Papp"
value = "1 to 10 ×10⁻⁶ cm/s"

[[record]]
molecule = "COC(=O)/C=C/CC[C@H](NC(=O)c1cc(Br)c(Br)s1)C(=O)Nc1cccn(CC(=O)NC2C3CC4CC(C3)CC2C4)c1=O (stereo partly shown)"
observation_type = "Papp"
value = "1 to 10 ×10⁻⁶ cm/s"

[[record]]
molecule = "COC(=O)/C=C/CC[C@H](NC(=O)c1oc2ccccc2c1C)C(=O)Nc1cccn(CC(=O)N[C@H]2C[C@H]3C[C@@H]([C@@H]2C)C3(C)C)c1=O"
observation_type = "Papp"
value = "1 to 10 ×10⁻⁶ cm/s"

[[record]]
molecule = "C=CCNC(=O)/C=C/CC[C@H](NC(=O)c1ccc2cnccc2n1)C(=O)Nc1cccn(CC(=O)NC23CC(C2)C3)c1=O"
observation_type = "Papp"
value = "< 1 ×10⁻⁶ cm/s"

[[record]]
molecule = "COC(=O)/C=C/CC[C@H](NC(=O)c1cc(Cl)sc1Cl)C(=O)Nc1cccn(CC(=O)N[C@@H]2C[C@@H]3CC[C@H]2C3)c1=O"
observation_type = "Papp"
value = "1 to 10 ×10⁻⁶ cm/s"

[[record]]
molecule = "COC(=O)/C=C/CC[C@H](NC(=O)c1cn[nH]n1)C(=O)Nc1cccn(CC(=O)NC2C3CC4CC(C3)CC2C4)c1=O (stereo partly shown)"
observation_type = "Papp"
value = "< 1 ×10⁻⁶ cm/s"

[[record]]
molecule = "COC(=O)/C=C/CC[C@H](NC(=O)c1cnnn1C)C(=O)Nc1cccn(CC(=O)NC23CC4(C)CC(C)(CC(C)(C4)C2)C3)c1=O"
observation_type = "Papp"
value = "1 to 10 ×10⁻⁶ cm/s"

[[record]]
molecule = "COC(=O)/C=C/CC[C@H](NC(=O)c1cncn1C)C(=O)Nc1cccn(CC(=O)N[C@@H]2C[C@@H]3CC[C@H]2C3)c1=O"
observation_type = "Papp"
value = "< 1 ×10⁻⁶ cm/s"

[[record]]
molecule = "COC(=O)/C=C/CC[C@H](NC(=O)c1ccnn1C)C(=O)Nc1cccn(CC(=O)NC23CC4CC(C)(CC(C)(C4)C2)C3)c1=O"
observation_type = "Papp"
value = "< 1 ×10⁻⁶ cm/s"

[[record]]
molecule = "COC(=O)/C=C/CC[C@H](NC(=O)c1oc2ccccc2c1C)C(=O)Nc1cccn(CC(=O)N(C)C23CC4CC(CC(C4)C2)C3)c1=O"
observation_type = "Papp"
value = "1 to 10 ×10⁻⁶ cm/s"

[[record]]
molecule = "COC(=O)/C=C/CC[C@H](NC(=O)c1sc(C(F)(F)F)nc1C)C(=O)Nc1cccn(CC(=O)NC2C3CC4CC(C3)CC2C4)c1=O (stereo partly shown)"
observation_type = "Papp"
value = "1 to 10 ×10⁻⁶ cm/s"


----------
Each entry below lists one item and its recorded pIC50 value.
Target: recombinant human transglutaminase 2 (Homo sapiens, UniProt P21980)
Sequence (P21980 1-687): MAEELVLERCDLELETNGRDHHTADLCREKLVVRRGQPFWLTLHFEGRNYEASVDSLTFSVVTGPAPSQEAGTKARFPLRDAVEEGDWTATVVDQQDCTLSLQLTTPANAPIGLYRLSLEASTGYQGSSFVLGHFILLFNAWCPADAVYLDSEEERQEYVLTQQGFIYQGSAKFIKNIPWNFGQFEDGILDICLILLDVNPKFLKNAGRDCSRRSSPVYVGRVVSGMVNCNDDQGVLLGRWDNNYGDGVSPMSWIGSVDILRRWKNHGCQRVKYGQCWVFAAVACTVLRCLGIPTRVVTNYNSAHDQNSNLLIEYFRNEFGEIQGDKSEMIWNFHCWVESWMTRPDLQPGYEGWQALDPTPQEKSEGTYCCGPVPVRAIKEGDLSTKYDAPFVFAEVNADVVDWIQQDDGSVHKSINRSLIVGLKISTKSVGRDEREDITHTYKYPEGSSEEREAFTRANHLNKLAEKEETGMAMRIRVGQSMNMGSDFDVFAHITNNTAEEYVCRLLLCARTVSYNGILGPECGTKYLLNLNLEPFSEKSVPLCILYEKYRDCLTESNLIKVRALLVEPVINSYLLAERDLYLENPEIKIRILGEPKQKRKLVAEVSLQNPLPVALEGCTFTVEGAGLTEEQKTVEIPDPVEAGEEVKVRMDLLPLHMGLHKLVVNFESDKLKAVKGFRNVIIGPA
Test: Transglutaminase assay (dansylcadaverine incorporation into dimethylcasein, DCC-assay)
Settings: recombinant human TG2 10 nM, dansylcadaverine/dimethylcasein, 37° C.
pIC50: −log10 of the molar value.
observation-type: pIC50

[[record]]
compound = "COC(=O)/C=C/CC[C@H](NC(=O)c1csnn1)C(=O)Nc1cccn(CC(=O)NC23CC(C2)C3)c1=O [III-169]"
tested_system = "recombinant human transglutaminase 2 (Homo sapiens, UniProt P21980)"
value = "6.60 to 7.60"

[[record]]
compound = "COC(=O)/C=C/CC[C@H](NC(=O)c1ccnn1C)C(=O)Nc1cccn(CC(=O)NC23CC4CC(C)(CC(C)(C4)C2)C3)c1=O [III-113]"
tested_system = "recombinant human transglutaminase 2 (Homo sapiens, UniProt P21980)"
value = "> 7.60"

[[record]]
compound = "COC(=O)/C=C/CC[C@H](NC(=O)c1oc2ccccc2c1C)C(=O)Nc1cccn(CC(=O)NC23CC4CC(CC(F)(C4)C2)C3)c1=O [III-51]"
tested_system = "recombinant human transglutaminase 2 (Homo sapiens, UniProt P21980)"
value = "> 7.60"

[[record]]
compound = "Cc1c(C(=O)N[C@@H](CC/C=C/C(=O)N(C)C)C(=O)Nc2cccn(CC(=O)NC3C4CC5CC(C4)CC3C5)c2=O)oc2ccccc12 (stereo partly shown) [III-75]"
tested_system = "recombinant human transglutaminase 2 (Homo sapiens, UniProt P21980)"
value = "6.60 to 7.60"

[[record]]
compound = "Cn1cncc1C(=O)N[C@@H](CC/C=C/S(C)(=O)=O)C(=O)Nc1cccn(CC(=O)NC2C3CC4CC(C3)CC2C4)c1=O (stereo partly shown) [III-100]"
tested_system = "recombinant human transglutaminase 2 (Homo sapiens, UniProt P21980)"
value = "6.60 to 7.60"

[[record]]
compound = "COC(=O)/C=C/CC[C@H](NC(=O)c1cnnn1C)C(=O)Nc1cccn(CC(=O)NC23CC4(C)CC(C)(CC(C)(C4)C2)C3)c1=O [III-93]"
tested_system = "recombinant human transglutaminase 2 (Homo sapiens, UniProt P21980)"
value = "> 7.60"

[[record]]
compound = "COC(=O)/C=C/CC[C@H](NC(=O)c1oc2ccccc2c1C)C(=O)Nc1cccn(CC(=O)NC23CC4CC5C2C[C@@H]2C[C@H]5C(C4)[C@H]3C2)c1=O [III-73]"
tested_system = "recombinant human transglutaminase 2 (Homo sapiens, UniProt P21980)"
value = "> 7.60"

[[record]]
compound = "COC(=O)/C=C/CC[C@H](NC(=O)c1cncn1C)C(=O)Nc1cccn(CC(=O)NC23CC4CC(C)(CC(C)(C4)C2)C3)c1=O [III-88]"
tested_system = "recombinant human transglutaminase 2 (Homo sapiens, UniProt P21980)"
value = "> 7.60"

[[record]]
compound = "CCOC(=O)/C=C/CC[C@H](NC(=O)c1cncn1C)C(=O)Nc1cccn(CC(=O)NC2C3CC4CC(C3)CC2C4)c1=O (stereo partly shown) [III-99]"
tested_system = "recombinant human transglutaminase 2 (Homo sapiens, UniProt P21980)"
value = "6.60 to 7.60"

[[record]]
compound = "COC(=O)/C=C/CC[C@H](NC(=O)c1oc2ccccc2c1C)C(=O)Nc1cccn(CC(=O)N(C)C2C3CC4CC(C3)CC2C4)c1=O (stereo partly shown) [III-37]"
tested_system = "recombinant human transglutaminase 2 (Homo sapiens, UniProt P21980)"
value = "6.60 to 7.60"

[[record]]
compound = "COC(=O)/C=C/CC[C@H](NC(=O)c1cc(Br)cs1)C(=O)Nc1cccn(CC(=O)NC2C3CC4CC(C3)CC2C4)c1=O (stereo partly shown) [III-18]"
tested_system = "recombinant human transglutaminase 2 (Homo sapiens, UniProt P21980)"
value = "> 7.60"

[[record]]
compound = "COC(=O)/C=C/CC[C@H](NC(=O)c1c(C)noc1C)C(=O)Nc1cccn(CC(=O)NC2C3CCCC2CC3)c1=O (stereo partly shown) [III-135]"
tested_system = "recombinant human transglutaminase 2 (Homo sapiens, UniProt P21980)"
value = "6.60 to 7.60"

[[record]]
compound = "COC(=O)/C=C/CC[C@H](NC(=O)c1oc2ccccc2c1C)C(=O)Nc1cccn(CC(=O)N(C)C23CC4CC(CC(C4)C2)C3)c1=O [III-47]"
tested_system = "recombinant human transglutaminase 2 (Homo sapiens, UniProt P21980)"
value = "5.82 to 6.60"

